- Assayed Target: ATP-dependent DNA helicase Q1 (Homo sapiens)
- Sequence (P46063 whole entry): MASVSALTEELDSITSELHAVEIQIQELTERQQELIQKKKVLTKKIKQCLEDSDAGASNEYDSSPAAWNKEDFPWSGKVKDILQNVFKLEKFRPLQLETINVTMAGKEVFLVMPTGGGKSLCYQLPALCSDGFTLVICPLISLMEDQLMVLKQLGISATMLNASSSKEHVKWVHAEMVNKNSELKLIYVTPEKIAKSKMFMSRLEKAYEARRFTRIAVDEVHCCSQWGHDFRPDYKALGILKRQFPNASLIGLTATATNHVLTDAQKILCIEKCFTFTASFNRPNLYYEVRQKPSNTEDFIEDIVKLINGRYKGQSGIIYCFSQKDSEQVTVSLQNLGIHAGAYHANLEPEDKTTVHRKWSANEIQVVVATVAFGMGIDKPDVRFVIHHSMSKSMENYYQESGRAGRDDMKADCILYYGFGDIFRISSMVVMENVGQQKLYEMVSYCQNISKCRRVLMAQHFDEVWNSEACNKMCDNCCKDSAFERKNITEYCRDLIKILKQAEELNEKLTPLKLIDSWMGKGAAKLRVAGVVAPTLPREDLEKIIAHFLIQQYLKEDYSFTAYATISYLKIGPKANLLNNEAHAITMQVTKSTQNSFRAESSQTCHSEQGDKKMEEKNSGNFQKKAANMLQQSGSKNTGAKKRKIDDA
pIC50: −log10 of the molar value.
So I've got a bunch of compounds here, and I need their pIC50 values.

Lookup: Fill in: pIC50 of `O=C(Nc1ccc(F)c(C(F)(F)F)c1)Nc1nnc(-c2ccncc2)s1` is ___
Found: < 4.30

Lookup: Fill in: pIC50 of `N#Cc1cc(NC(=O)Nc2nnc(-c3ccncc3)s2)ccc1Br` is ___
Found: < 4.30

----------
- Test Details: Metabolic stability of the compound in mouse plasma assessed as compound remaining after 5 hrs
- Assay type: ADME, cell-free
- Condition Parameters: read-out: Stability
Measured Metric: remaining at 5 h (%)
Entry rule: numbers only, all in %.

Lookup: Fill in: remaining at 5 h of `N#Cc1cc(NC(=O)Nc2nnc(-c3ccncc3)s2)ccc1-c1cn[nH]c1` is ___
Found: 100

Lookup: Fill in: remaining at 5 h of `O=C(Nc1ccc(F)c(C(F)(F)F)c1)Nc1nnc(-c2ccncc2)s1` is ___
Found: 100

----------
- Species on record: Homo sapiens
- Test Details: Selectivity ratio of IC50 for WRN (unknown origin) to IC50 for BLM (unknown origin)
Measured Metric: Ratio IC50
// response body must contain only the number

Lookup: Fill in: Ratio IC50 of `N#Cc1cc(NC(=O)Nc2nnc(-c3ccncc3)s2)ccc1-c1cn[nH]c1` is ___
Found: 6.5

Lookup: Fill in: Ratio IC50 of `O=C(Nc1ccc(Cl)c(Cl)c1)Nc1nnc(-c2ccncc2)s1` is ___
Found: 2.4

Lookup: Fill in: Ratio IC50 of `N#Cc1cc(NC(=O)Nc2nnc(-c3ccncc3)s2)ccc1Cl` is ___
Found: 16

Lookup: Fill in: Ratio IC50 of `O=C(Nc1ccc(Br)c(Br)c1)Nc1nnc(-c2ccncc2)s1` is ___
Found: 1.4

Lookup: Fill in: Ratio IC50 of `N#Cc1cc(NC(=O)Nc2nnc(-c3ccncc3)s2)ccc1Br` is ___
Found: 10

Lookup: Fill in: Ratio IC50 of `N#Cc1cc(NC(=O)Nc2nnc(-c3ccncc3)s2)ccc1F` is ___
Found: 7.3

----------
- Test Details: Kinetic solubility of the compound in PBS buffer at pH 7.4
- Format: physicochemical
- Condition Parameters: read-out: Kinetic_solubility
Measured Metric: solubility kinetic (µM)
Entry rule: numbers only, all in µM.

Lookup: Fill in: solubility kinetic of `N#Cc1cc(NC(=O)Nc2nnc(-c3ccncc3)s2)ccc1-c1cn[nH]c1` is ___
Found: 10

Lookup: Fill in: solubility kinetic of `O=C(Nc1ccc(F)c(C(F)(F)F)c1)Nc1nnc(-c2ccncc2)s1` is ___
Found: 1

----------
- Assayed Target: RecQ-like DNA helicase BLM (Homo sapiens)
- Sequence (P54132 whole entry): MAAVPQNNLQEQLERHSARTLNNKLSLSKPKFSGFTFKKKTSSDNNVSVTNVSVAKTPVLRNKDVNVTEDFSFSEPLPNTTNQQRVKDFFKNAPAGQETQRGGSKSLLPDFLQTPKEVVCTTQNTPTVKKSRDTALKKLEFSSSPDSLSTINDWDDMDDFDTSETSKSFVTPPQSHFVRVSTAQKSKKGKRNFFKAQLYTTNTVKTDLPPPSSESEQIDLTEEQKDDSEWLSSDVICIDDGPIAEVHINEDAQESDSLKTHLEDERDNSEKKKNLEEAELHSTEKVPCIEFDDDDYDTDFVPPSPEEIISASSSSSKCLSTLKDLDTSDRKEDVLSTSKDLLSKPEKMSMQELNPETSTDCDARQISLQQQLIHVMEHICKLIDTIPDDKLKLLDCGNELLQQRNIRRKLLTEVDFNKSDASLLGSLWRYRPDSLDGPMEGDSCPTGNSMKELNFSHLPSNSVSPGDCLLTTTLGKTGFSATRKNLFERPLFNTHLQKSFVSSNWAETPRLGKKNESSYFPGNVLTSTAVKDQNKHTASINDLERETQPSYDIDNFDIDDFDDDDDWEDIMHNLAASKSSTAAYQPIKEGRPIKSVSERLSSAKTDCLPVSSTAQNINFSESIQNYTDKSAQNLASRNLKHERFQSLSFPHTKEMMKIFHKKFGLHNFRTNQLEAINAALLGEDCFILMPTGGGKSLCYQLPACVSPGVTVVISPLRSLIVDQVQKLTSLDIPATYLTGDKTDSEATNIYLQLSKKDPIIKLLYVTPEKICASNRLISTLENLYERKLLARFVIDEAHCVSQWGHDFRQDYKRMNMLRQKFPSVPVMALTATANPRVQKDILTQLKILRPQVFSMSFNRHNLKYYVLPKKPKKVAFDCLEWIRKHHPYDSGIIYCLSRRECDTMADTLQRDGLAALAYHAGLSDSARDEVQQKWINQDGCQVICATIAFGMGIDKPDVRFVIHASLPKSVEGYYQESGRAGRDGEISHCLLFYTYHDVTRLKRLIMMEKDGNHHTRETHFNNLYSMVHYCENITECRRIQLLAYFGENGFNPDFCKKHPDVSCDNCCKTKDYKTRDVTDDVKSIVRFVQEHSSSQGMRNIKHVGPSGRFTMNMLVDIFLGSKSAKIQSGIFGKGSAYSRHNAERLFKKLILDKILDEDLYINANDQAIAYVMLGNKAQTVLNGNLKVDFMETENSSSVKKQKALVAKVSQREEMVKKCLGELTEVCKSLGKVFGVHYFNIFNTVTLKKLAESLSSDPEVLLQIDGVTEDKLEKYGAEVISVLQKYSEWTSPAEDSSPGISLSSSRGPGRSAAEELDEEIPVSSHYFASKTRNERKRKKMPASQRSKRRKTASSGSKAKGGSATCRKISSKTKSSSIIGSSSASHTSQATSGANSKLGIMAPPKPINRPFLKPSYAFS
- Test Details: Inhibition of BLM (unknown origin) by gel-based DNA unwinding assay
- Condition Parameters: read-out: IC50
pIC50: −log10 of the molar value.
Label class 1 for high-side pIC50 (at or above 5) and class 0 for low-side pIC50 (below it).

Lookup: Check if pIC50 >= 5 (inclusive). Item: `N#Cc1ccc(NC(=O)Nc2nnc(-c3ccncc3)s2)cc1Cl`
Found: class 1

Lookup: Check if pIC50 >= 5 (inclusive). Item: `N#Cc1ccc(NC(=O)Nc2nnc(-c3ccncc3)s2)cc1Br`
Found: class 1

Lookup: Check if pIC50 >= 5 (inclusive). Item: `N#Cc1cc(NC(=O)Nc2nnc(-c3ccncc3)s2)ccc1F`
Found: class 1

Lookup: Check if pIC50 >= 5 (inclusive). Item: `NC(=Nc1ccc(Cl)c(Cl)c1)Nc1nnc(-c2ccncc2)s1`
Found: class 0

Lookup: Check if pIC50 >= 5 (inclusive). Item: `O=C(Nc1ccc(Cl)c(Cl)c1)Nc1nc(-c2ccncc2)cs1`
Found: class 0

Lookup: Check if pIC50 >= 5 (inclusive). Item: `N#Cc1cc(NC(=O)Nc2nnc(-c3ccncc3)s2)ccc1-c1ccc[nH]1`
Found: class 1

Lookup: Check if pIC50 >= 5 (inclusive). Item: `O=C(Nc1ccc(-c2cn[nH]c2)c(C(F)(F)F)c1)Nc1nnc(-c2ccncc2)s1`
Found: class 0

Lookup: Check if pIC50 >= 5 (inclusive). Item: `Cc1cc(NC(=O)Nc2nnc(-c3ccncc3)s2)ccc1-c1cn[nH]c1`
Found: class 0

Lookup: Check if pIC50 >= 5 (inclusive). Item: `O=C(Nc1ccc(Cl)c(C(F)(F)F)c1)Nc1nnc(-c2ccncc2)s1`
Found: class 1

----------
- Assayed Target: RecQ-like DNA helicase BLM (Homo sapiens)
- Test Details: Inhibition of BLM (unknown origin) by gel-based DNA unwinding assay
- Condition Parameters: read-out: IC50
Measured Metric: log10 IC50 (log10 of the value in µM)
Remember, log10 of IC50, in µM.

Lookup: Fill in: log10 IC50 of `Cc1cc(NC(=O)Nc2nnc(-c3ccncc3)s2)ccc1C#N` is ___
Found: 0.51

Lookup: Fill in: log10 IC50 of `O=C(Nc1ccc(Br)c(Br)c1)Nc1nnc(-c2ccncc2)s1` is ___
Found: 0.32

Lookup: Fill in: log10 IC50 of `O=C(Nc1ccc(Cl)cc1)Nc1nnc(-c2ccncc2)s1` is ___
Found: 1.60

Lookup: Fill in: log10 IC50 of `O=C(Nc1ccc(-n2ccnc2)c(F)c1)Nc1nnc(-c2ccncc2)s1` is ___
Found: 1.00

Lookup: Fill in: log10 IC50 of `S=C(Nc1ccc(Cl)c(Cl)c1)Nc1nnc(-c2ccncc2)s1` is ___
Found: 0.60

Lookup: Fill in: log10 IC50 of `Cc1cc(NC(=O)Nc2nnc(-c3ccncc3)s2)ccc1F` is ___
Found: 1.20

Lookup: Fill in: log10 IC50 of `N#Cc1cc(NC(=O)Nc2nnc(-c3ccncc3)s2)ccc1Br` is ___
Found: -0.96

Lookup: Fill in: log10 IC50 of `N#Cc1cc(NC(=O)Nc2nnc(-c3ccncc3)s2)ccc1-c1cn[nH]c1` is ___
Found: 0.04

Lookup: Fill in: log10 IC50 of `N#Cc1ccc(NC(=O)Nc2nnc(-c3ccncc3)s2)cc1` is ___
Found: 0.90

Lookup: Fill in: log10 IC50 of `O=C(Nc1ccc(Cl)c(Cl)c1)Nc1cccc(-c2ccncc2)n1` is ___
Found: 0.60

Lookup: Fill in: log10 IC50 of `O=c1c(Nc2ccc(Cl)c(Cl)c2)c(Nc2nnc(-c3ccncc3)s2)c1=O` is ___
Found: 0.63

----------
- Assayed Target: RecQ-like DNA helicase BLM (Homo sapiens)
- Test Details: Inhibition of BLM (unknown origin) by gel-based DNA unwinding assay
- Condition Parameters: read-out: IC50
So I've got a bunch of compounds here, and I need their pIC50 values.
# log scale: pIC50 equals minus log10 of the concentration in mol/L

Lookup: Fill in: pIC50 of `Nc1ccc(-c2nnc(NC(=O)Nc3ccc(Cl)c(Cl)c3)s2)cc1` is ___
Found: 4.31

Lookup: Fill in: pIC50 of `Cc1cc(NC(=O)Nc2nnc(-c3ccncc3)s2)ccc1Cl` is ___
Found: 5.10

Lookup: Fill in: pIC50 of `O=C(Nc1ccc(Cl)c(Cl)c1)Nc1nnc(-c2ccncc2)s1` is ___
Found: 5.85

Lookup: Fill in: pIC50 of `O=C(Nc1ccc(Cl)c([N+](=O)[O-])c1)Nc1nnc(-c2ccncc2)s1` is ___
Found: 5.89

Lookup: Fill in: pIC50 of `Nc1ccc(NC(=O)Nc2nnc(-c3ccncc3)s2)cc1C(F)(F)F` is ___
Found: 4.40

Lookup: Fill in: pIC50 of `Cc1cc(NC(=O)Nc2nnc(-c3ccncc3)s2)ccc1Br` is ___
Found: 4.87
